# Tested on: 596521-263-R-J1-PDC complex spheroid growth;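 note: spheroids exposed to compounds for 7 days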
# METHOD: Anticancer human tumor 596521-263-R-J1-PDC patient-derived soft tissue sarcoma cell line growth inhibition [Asc]
# PROTOCOL CONDITIONS: second compound 0.1 µM; first compound 0.316 µM; stronger effect = lower value
# Source text: Multicellular complex tumor spheroid response to apoptosis pathway targeting inhibitors Alrizomadlin, Pelcitoclax, and Dasminapant in combination with a variety of drugs and investigational agents in selected tumor cell lines […] Compounds. […] If the clinical Cmax for an agent had not been determined, the highest concentration tested was 10 microM. […]
MEASURED ENDPOINT: viability, T/C (%)
Numeric only. Scale: %

Use these answered entries as a reference point.
>  <COMPOUND>
C#Cc1c(F)ccc2cc(O)cc(-c3ncc4c(N5CC6CCC(C5)N6)nc(OCC56CCCN5CC(F)C6)nc4c3F)c12 (stereo not drawn) + CNC(C)C(=O)NC1CN(S(=O)(=O)c2cccc(S(=O)(=O)N3CCC4CCC(C(=O)NC(c5ccccc5)c5ccccc5)N4C(=O)C(NC(=O)C(C)NC)C3)c2)CCC2CCC(C(=O)NC(c3ccccc3)c3ccccc3)N2C1=O

>  <OBS VALUE>
83.5

$$$$
>  <COMPOUND>
CCN1CCN(Cc2ccc(Nc3ncc(F)c(-c4cc(F)c5nc(C)n(C(C)C)c5c4)n3)nc2)CC1 + Cc1c(S(C)(=O)=O)c(-c2cc(F)cc(N3CCN(c4ccc(NS(=O)(=O)c5ccc(NC(CCN6CCC(C(=O)OCCCP(=O)(O)O)CC6)CSc6ccccc6)c(S(=O)(=O)C(F)(F)F)c5)cc4)CC3)c2)c(-c2ccc(Cl)cc2)n1C(C)C

>  <OBS VALUE>
88.7

$$$$

Here's the next entry for you.
Qu. Return viability, T/C (reported value) for this compound: CCN1CCN(Cc2ccc(Nc3ncc(F)c(-c4cc(F)c5nc(C)n(C(C)C)c5c4)n3)nc2)CC1 + CNC(C)C(=O)NC1CN(S(=O)(=O)c2cccc(S(=O)(=O)N3CCC4CCC(C(=O)NC(c5ccccc5)c5ccccc5)N4C(=O)C(NC(=O)C(C)NC)C3)c2)CCC2CCC(C(=O)NC(c3ccccc3)c3ccccc3)N2C1=O
Ans. 79.7
